# target_under_test: γ-secretase (Homo sapiens)
# protocol_description: cell-free γ-secretase assay using detergent-solubilized membranes from HeLa cells and a recombinant APP-based substrate
# Assay type: biochemical
# Parameters: detergent-solubilized membranes from HeLa cells; endogenous in cells; host or cells: HeLa cells (detergent-solubilized membranes)
# stated_conditions: 50% inhibition of Aβ40 production; at least three independent experiments; read-out: Cell-free Assay IC50
# Procedure: Compounds were tested in a γ-secretase assay using detergent-solubilized membranes from HeLa cells and a recombinant APP-based substrate (Table 2, 18). […] Moreover, the γ-secretase inhibition appears to show dependence on length.
Non-standard residues stand in square brackets, D forms with d. Residues, ends and D or L forms follow the SMILES beside them. *: point of attachment. Boc = CC(C)(C)OC(=O)*; Aib = CC(C)(N)C(=O)O; Bn = c1ccc(C*)cc1
Let's look at some compounds and their measured IC50.
Write down the numeric answer in µM and omit the unit.

CC[C@@H](C)[C@@H](NC(=O)[C@H](NC(=O)[C@H](NC(=O)C(C)(C)NC(=O)CNC(=O)OC(C)(C)C)C(C)C)C(C)C)C(=O)NC(C)(C)C(=O)N[C@@H](C(=O)N[C@@H](C(=O)NC(C)(C)C(=O)N[C@@H](C(=O)N[C@@H](C(=O)NC(C)(C)C(=O)OC)[C@H](C)CC)C(C)C)C(C)C)[C@H](C)OCc1ccccc1 [SEQ ID NO:17 D-peptide] (Boc-G[Aib][dV][dV][dI][Aib][dT](Bn)[dV][Aib][dV][dI][Aib]-OMe) ... 0.012

// next item, IC50 requested
query: Which value of IC50 has been reported for CC[C@H](C)[C@H](NC(=O)[C@@H](NC(=O)[C@@H](NC(=O)C(C)(C)NC(=O)CNC(=O)[C@@H](NC(=O)C(C)(C)NC(=O)[C@H](CC(C)C)NC(=O)OC(C)(C)C)C(C)C)C(C)C)C(C)C)C(=O)NC(C)(C)C(=O)N[C@H](C(=O)N[C@H](C(=O)NC(C)(C)C(=O)N[C@H](C(=O)N[C@H](C(=O)NC(C)(C)C(=O)OC)[C@@H](C)CC)C(C)C)C(C)C)[C@@H](C)OCc1ccccc1 [SEQ ID NO:20 L-peptide] (Boc-L[Aib]VG[Aib]VVI[Aib]T(Bn)V[Aib]VI[Aib]-OMe) in the records?
result: 4.7

Hello, the source for this data is patent US7501397B2, in case you need it.
